Target: rat EP1 receptor (Rattus norvegicus, UniProt P70597)
Construct: expressed in transfected cells; host or cells: COS-1 cells, transient transfection with Lipofectamine 2000
Test: Test for confirmation of EP1 receptor antagonism: inhibition of prostaglandin E2-induced increase in intracellular calcium concentration (Method A or Method B)
Format: cell-based
Conditions: Method B (Calcium kit II Fluo 4, FDSS 7000); rat EP1 receptor-expressing cells; prostaglandin E2 10 nM
Property: IC50 (nM)

Use these answered entries as a reference point.
compound COc1ccc2c(Cc3cccc(C(=O)O)n3)c(-c3ccc(F)cc3)[nH]c2c1 , IC50 observed: 31

For record Cc1cc2[nH]c(-c3ccccc3)c(Cc3cccc(C(=O)O)n3)c2cc1F the listed IC50 is 31

Lookup result for Cc1ccc2c(Cc3cccc(C(=O)O)n3)c(-c3ccc(F)cc3)[nH]c2c1 ; measured IC50: 27

get_value(item= Cc1cc2[nH]c(-c3ccc(F)cc3)c(Cc3cccc(C(=O)O)n3)c2cc1F , readout=IC50) returns 47

Entry COc1ccc2c(Cc3cccc(C(=O)O)n3)c(-c3ccoc3)[nH]c2c1 — recorded IC50 = 15

Lab book: IC50 of CCOc1cc2[nH]c(-c3ccsc3)c(Cc3cccc(C(=O)O)n3)c2cc1F noted as 22

(A) O=C(O)c1cccc(Cc2c(-c3ccc(F)cc3)[nH]c3cc(C4CC4)ccc23)n1
(B) CCOc1cc2[nH]c(-c3ccsc3)c(Cc3cccc(C(=O)O)n3)c2cc1C
(C) Cc1cc2[nH]c(-c3ccsc3)c(Cc3cccc(C(=O)O)n3)c2cc1C
Query :: Ranking field: IC50; order: falling. I would appreciate it if you listed the labels in the requested order.
Result :: B, A, C
(B: 46 nM, A: 27 nM, C: 14 nM)

(I) O=C(O)c1cccc(Cc2c(-c3cccnc3)[nH]c3cc(C4CC4)ccc23)n1
(II) COc1cc2[nH]c(C(C)C)c(Cc3cccc(C(=O)O)n3)c2cc1Cl
Query :: When the recorded IC50 values are compared, which is smaller: that of I or that of II ? Answer by quoting the chosen item's label.
Result :: I

* * *

Biological target: rat EP1 receptor (Rattus norvegicus)
Construct: expressed in transfected cells; host or cells: COS-1 cells, transient transfection with Lipofectamine 2000
Sequence (P70597 1-405): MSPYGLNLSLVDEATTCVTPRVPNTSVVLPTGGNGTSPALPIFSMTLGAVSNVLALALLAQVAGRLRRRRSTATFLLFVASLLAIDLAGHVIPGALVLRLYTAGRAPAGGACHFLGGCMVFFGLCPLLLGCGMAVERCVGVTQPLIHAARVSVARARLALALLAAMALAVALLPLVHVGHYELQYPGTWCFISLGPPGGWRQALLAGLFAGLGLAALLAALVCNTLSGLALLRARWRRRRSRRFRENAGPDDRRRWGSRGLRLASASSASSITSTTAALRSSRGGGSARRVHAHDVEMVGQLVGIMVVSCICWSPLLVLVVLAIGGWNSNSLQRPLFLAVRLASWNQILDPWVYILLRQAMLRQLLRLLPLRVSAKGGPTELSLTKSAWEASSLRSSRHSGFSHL
Assay: Test for confirmation of EP1 receptor antagonism: inhibition of prostaglandin E2-induced increase in intracellular calcium concentration (Method A or Method B)
Type: cell-based
Details: Method B (Calcium kit II Fluo 4, FDSS 7000); rat EP1 receptor-expressing cells; prostaglandin E2 10 nM
pIC50: −log10 of the molar value.
Property: pIC50

Recorded pIC50, per entry:
Just so you know, measured pIC50 for COc1ccc2c(Cc3cccc(C(=O)O)c3F)c(-c3ccccc3)[nH]c2c1 [Example 16-9] came out at 7.39

Measured pIC50, Cc1cc2[nH]c(-c3ccccc3)c(Cc3cccc(C(=O)O)n3)c2cc1C [Example 16-44] : 7.96

Noted for O=C(O)c1cccc(Cc2c(-c3ccccc3)[nH]c3cc(C(F)(F)F)c(F)cc23)n1 [Example 16-45] : its pIC50 reads 7.59

Kindly note the recorded pIC50 for O=C(O)c1cccc(Cc2c(-c3ccsc3)[nH]c3cc(Cl)c(F)cc23)n1 [Example 16-52] , which is 7.37

The measured pIC50 associated with O=C(O)c1cccc(Cc2c(-c3ccccc3)[nH]c3cc(OC(F)F)ccc23)n1 [Example 16-73] reads 7.64

(a) COc1cc2[nH]c(-c3ccsc3)c(Cc3cccc(C(=O)O)n3)c2cc1F [Example 16-28]
(b) O=C(O)c1cccc(Cc2c(-c3ccsc3)[nH]c3cc(C4CC4)ccc23)n1 [Example 16-65]
Query :: Consider a and b . Which of these has its pIC50 at a higher number? I would appreciate it if you answered with the label of your choice.
Result :: b
(b: 7.85, a: 7.52)

* * *

Target: rat EP1 receptor (Rattus norvegicus, UniProt P70597)
Construct: expressed in transfected cells; host or cells: COS-1 cells, transient transfection with Lipofectamine 2000
Assay: Test for confirmation of EP1 receptor antagonism: inhibition of prostaglandin E2-induced increase in intracellular calcium concentration (Method A or Method B)
Assay type: cell-based
Conditions: Method B (Calcium kit II Fluo 4, FDSS 7000); rat EP1 receptor-expressing cells; prostaglandin E2 10 nM
pIC50: −log10 of the molar value.
Property: pIC50

Please fill in: pIC50 reported for COc1cc2[nH]c(C(C)C)c(Cc3cccc(C(=O)O)n3)c2cc1F = 7.41

The value of pIC50 measured for the molecule COc1cc2[nH]c(C(C)(C)C)c(Cc3cccc(C(=O)O)n3)c2cc1F turned out to be 7.49

So for COc1cccc(-c2[nH]c3cc(OC)ccc3c2Cc2cccc(C(=O)O)n2)c1 , the logged pIC50 turned out to be 7.44

// sample COc1ccc2c(Cc3ccc(F)c(C(=O)O)c3)c(-c3ccccc3)[nH]c2c1 , its pIC50 was 7.52

Record CCOc1ccc2c(Cc3cccc(C(=O)O)n3)c(-c3ccc(F)cc3)[nH]c2c1 , field pIC50: 7.49

# molecule COc1cc2c(Cc3cccc(C(=O)O)n3)c(-c3ccccc3)[nH]c2cc1Cl ; its pIC50 = 7.47

// COc1cc2c(Cc3cccc(C(=O)O)n3)c(-c3ccoc3)[nH]c2cc1Cl : pIC50 value = 7.59
